This section presents compounds with their documented Ki values.
measurement target: benzodiazepine receptors
measurement protocol: "benzodiazepine receptors" test, displacement of ^3 H-Diazepam from rat brain receptors
experimental conditions: ^3 H-Diazepam displacement, read-out: In vitro Ki
Protocol: The anti-anxiety activity of the compounds of the present invention was shown by submitting the compounds to the "benzodiazepine receptors" test. These experiments were carried out by following the method described by H. Mohler and T. Okada in Life Sciences, Vol. 20, 2101-2110 (1977).
Where a name gives a salt, the structure may show the parent alone.
The reply should contain only the number, in nM.

Solved entries:
INSERT INTO assay_data (compound, measurement_target, unit_abbrev, recorded_measurement) VALUES
  ('Cc1c2c(cn1C)N(C)C(=O)C(OC(=O)C(C)C)N=C2c1ccccc1Cl (stereo not shown) [Example 9]', 'benzodiazepine receptors', 'nM', 4.1),
  ('Cc1c2c(cn1C)N(C)C(=O)C(OC(=O)c1ccccc1)N=C2c1ccccc1Cl (stereo not shown) [Example 1]', 'benzodiazepine receptors', 'nM', 6.7);

Which Ki value belongs to CCOC(=O)CCCNC(=O)CCC(=O)OC1N=C(c2ccccc2)c2c(cn(C)c2C)NC1=O (stereo not shown) [Example 15, hydrochloride] ?
38.9

Data request, read-out Ki, for CCOC1N=C(c2ccccc2Cl)c2c(cn(C)c2C)N(C)C1=O (stereo not shown) [Example 16, hydrochloride hydrate]
24.6

----------
measurement target: benzodiazepine receptors
measurement protocol: "benzodiazepine receptors" test, displacement of ^3 H-Diazepam from rat brain receptors
experimental conditions: ^3 H-Diazepam displacement, read-out: In vitro Ki
pKi: −log10 of the molar value.
Decision: pKi compared against 8; not below it gives 1, below it gives 0.

The examples below pair each entry with its known result.
INSERT INTO assay_data (compound, measurement_target, classification) VALUES
  ('COC1N=C(c2ccccc2Cl)c2c(cn(C)c2C)N(C)C1=O.Cl.O (centres unmarked) [Example 17, hydrochloride hydrate]', 'benzodiazepine receptors', 0),
  ('Cc1ccccc1C(=O)OC1N=C(c2ccccc2Cl)c2c(cn(C)c2C)N(C)C1=O (centres unmarked)', 'benzodiazepine receptors', 1),
  ('Cc1c2c(cn1C)N(C)C(=O)C(OC(=O)C(C)(C)C)N=C2c1ccccc1Cl (centres unmarked)', 'benzodiazepine receptors', 0);

Now, please, on to the next compound.
Given CCOC(=O)CCCNC1N=C(c2ccccc2Cl)c2c(cn(C)c2C)N(C)C1=O (centres unmarked) , state whether its pKi is at least 8.
0
